- study.target: hβ2 adrenergic receptor (Homo sapiens (Human), UniProt P07550)
- Sequence (P07550 whole entry): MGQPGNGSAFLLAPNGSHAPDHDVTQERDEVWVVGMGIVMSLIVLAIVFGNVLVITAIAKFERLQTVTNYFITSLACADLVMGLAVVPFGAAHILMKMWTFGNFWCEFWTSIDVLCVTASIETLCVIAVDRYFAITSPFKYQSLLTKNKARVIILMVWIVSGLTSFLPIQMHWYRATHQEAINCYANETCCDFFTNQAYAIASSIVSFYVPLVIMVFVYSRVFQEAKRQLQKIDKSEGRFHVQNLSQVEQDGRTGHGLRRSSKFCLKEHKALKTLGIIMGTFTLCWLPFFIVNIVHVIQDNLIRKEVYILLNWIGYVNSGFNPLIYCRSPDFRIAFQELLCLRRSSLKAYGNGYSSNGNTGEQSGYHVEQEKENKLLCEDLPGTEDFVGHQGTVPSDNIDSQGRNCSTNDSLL
- measurement.notes: Assay for determining adrenergic receptor agonist potency (cAMP Flashplate, HEK-293 cells)
- run.parameters: data rounded to nearest 1 nM
pEC50: −log10 of the molar value.
The following molecules are shown together with reported pEC50 values.
quantity.kind: pEC50

- CC(Cc1ccc(CNC(=O)Cc2ccc(N(C)C(=O)CCN3CCC(OC(=O)Nc4ccccc4-c4ccccc4)CC3)cc2)cc1)NC[C@H](O)c1ccc(O)c2[nH]c(=O)ccc12 (stereo partly drawn) [Compound I-66]: 9.00
- COc1cc(NC(=O)CCCN(C)C(=O)CCN2CCC(OC(=O)Nc3ccccc3-c3ccccc3)CC2)ccc1CNC[C@H](O)c1ccc(O)c2[nH]c(=O)ccc12: 8.70
- CN(CCCCC(=O)Nc1cccc(CCNC[C@H](O)c2ccc(O)c3[nH]c(=O)ccc23)c1)C(=O)CCN1CCC(OC(=O)Nc2ccccc2-c2ccccc2)CC1: 9.00

---

- study.target: hM3 muscarinic receptor (Homo sapiens (Human), UniProt P20309)
- Sequence (P20309 whole entry): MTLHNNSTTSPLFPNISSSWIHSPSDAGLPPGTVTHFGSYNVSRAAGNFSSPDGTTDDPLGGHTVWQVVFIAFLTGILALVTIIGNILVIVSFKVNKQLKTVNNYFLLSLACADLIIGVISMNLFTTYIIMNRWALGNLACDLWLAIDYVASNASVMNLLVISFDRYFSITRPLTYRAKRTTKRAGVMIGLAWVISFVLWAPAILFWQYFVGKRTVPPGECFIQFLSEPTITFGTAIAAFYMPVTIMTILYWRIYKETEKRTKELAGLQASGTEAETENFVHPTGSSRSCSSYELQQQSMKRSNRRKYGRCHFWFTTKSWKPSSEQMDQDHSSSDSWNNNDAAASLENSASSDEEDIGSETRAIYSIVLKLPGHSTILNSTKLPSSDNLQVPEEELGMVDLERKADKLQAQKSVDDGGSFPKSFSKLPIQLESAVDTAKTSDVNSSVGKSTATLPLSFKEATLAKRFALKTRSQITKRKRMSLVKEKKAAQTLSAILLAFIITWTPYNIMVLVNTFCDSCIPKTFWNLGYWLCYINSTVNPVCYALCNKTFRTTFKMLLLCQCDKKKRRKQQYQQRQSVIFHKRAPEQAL
- measurement.notes: Radioligand binding assay for muscarinic receptors ([3H]-NMS displacement, CHO cell membranes)
- run.parameters: hM3 Muscarinic Receptor Binding; data rounded to nearest 0.1 nM
pKi: −log10 of the molar value. Structures can show the parent of a compound that is named as a salt.
quantity.kind: pKi

* COc1cc(NC(=O)CCCN(C)C(=O)CCN2CCC(OC(=O)Nc3ccccc3-c3ccccc3)CC2)ccc1CNC[C@H](O)c1ccc(O)c2[nH]c(=O)ccc12 | 10.00
* CC(Cc1cc(CC(=O)NCc2ccc(N(C)C(=O)CCN3CCC(OC(=O)Nc4ccccc4-c4ccccc4)CC3)cc2)ccc1F)NC[C@H](O)c1ccc(O)c2[nH]c(=O)ccc12 (some centres unmarked) | 10.00
* CN(CCCC(=O)Nc1ccc(CNC[C@H](O)c2ccc(O)c3[nH]c(=O)ccc23)cc1)C(=O)CCN1CCC(OC(=O)Nc2ccccc2-c2ccccc2)CC1 [Compound I-1, Ditrifluoroacetic Acid Salt] | 10.00
* COc1cc(NC(=O)c2cccc(N(C)C(=O)CCN3CCC(OC(=O)Nc4ccccc4-c4ccccc4)CC3)c2)c(Cl)cc1CNC[C@H](O)c1ccc(O)c2[nH]c(=O)ccc12 | 9.70
* COc1ccc(CNC(=O)Cc2ccc(N(C)C(=O)CCN3CCC(OC(=O)Nc4ccccc4-c4ccccc4)CC3)cc2)cc1CC(C)NC[C@H](O)c1ccc(O)c2[nH]c(=O)ccc12 (some centres unmarked) | 9.40

---

- study.target: hβ2 adrenergic receptor (Homo sapiens (Human))
- measurement.notes: Assay for determining adrenergic receptor agonist potency (cAMP Flashplate, HEK-293 cells)
- run.parameters: data rounded to nearest 1 nM
- Procedure: The cell monolayer was lifted with 2 mM EDTA in PBS. […] Data were analyzed by nonlinear regression analysis with the GraphPad Prism Software package (GraphPad Software, Inc., San Diego, Calif.) with the sigmoidal equation. […]
pEC50: −log10 of the molar value. Structures can show the parent of a compound that is named as a salt.
quantity.kind: pEC50

* CN(CCCC(=O)Nc1cccc(CCNC[C@H](O)c2ccc(O)c3[nH]c(=O)ccc23)c1)C(=O)CCN1CCC(OC(=O)Nc2ccccc2-c2ccccc2)CC1 [Compound I-7, Ditrifluoroacetic Acid Salt] | 9.00
* C[C@@H](Cc1cccc(CC(=O)NCCCCN(C)C(=O)CCN2CCC(OC(=O)Nc3ccccc3-c3ccccc3)CC2)c1)NC[C@H](O)c1ccc(O)c2[nH]c(=O)ccc12 [Compound I-24] | 9.00
* CN(C(=O)CCN1CCC(OC(=O)Nc2ccccc2-c2ccccc2)CC1)c1ccc(CNC(=O)Cc2ccc(CNC[C@H](O)c3ccc(O)c4[nH]c(=O)ccc34)cc2)cc1 [Compound I-75] | 8.70
* C[C@H](Cc1cccc(CCNC(=O)c2ccc(N(C)C(=O)CCN3CCC(OC(=O)Nc4ccccc4-c4ccccc4)CC3)cc2)c1)NC[C@H](O)c1ccc(O)c2[nH]c(=O)ccc12 [Compound I-55] | 9.00
* CN(C(=O)CCN1CCC(OC(=O)Nc2ccccc2-c2ccccc2)CC1)c1ccc(CNC(=O)Cc2cccc(CNC[C@H](O)c3ccc(O)c4[nH]c(=O)ccc34)c2)cc1 [Compound I-74] | 8.70
